- Tested on: SK-BR-3
- ASSAY_PROTOCOL: normalised response (% of control), CellTiter-Glo; higher = more viable cells (100 = DMSO, 0 = benzethonium chloride kill control)
- CONDITION_DESCRIPTION: incubation time: 72 h

COMPOUND: Cn1c(CCCC(=O)O)nc2cc(N(CCCl)CCCl)ccc21 [Bendamustine] (100 nM)
ASSAYED_SYSTEM: SK-BR-3
UNITS_LABEL: %
normalised response: 108
//
COMPOUND: C=C(c1ccc(C(=O)O)cc1)c1cc2c(cc1C)C(C)(C)CCC2(C)C [Bexarotene] (100 nM)
ASSAYED_SYSTEM: SK-BR-3
UNITS_LABEL: %
normalised response: 88.6
//
COMPOUND: CNCc1ccc(-c2[nH]c3cc(F)cc4c3c2CCNC4=O)cc1 [Rucaparib] (100 nM)
ASSAYED_SYSTEM: SK-BR-3
UNITS_LABEL: %
normalised response: 90
//
COMPOUND: Oc1nc(-c2ccc(C(F)(F)F)cc2)nc2c1CSCC2 [XAV-939] (100 nM)
ASSAYED_SYSTEM: SK-BR-3
UNITS_LABEL: %
normalised response: 99.1
//
COMPOUND: N#CCNC(=O)c1ccc(-c2ccnc(Nc3ccc(N4CCOCC4)cc3)n2)cc1 [Momelotinib] (100 nM)
ASSAYED_SYSTEM: SK-BR-3
UNITS_LABEL: %
normalised response: 95.9
//
COMPOUND: O=C1CCC(N2C(=O)c3ccccc3C2=O)C(=O)N1 (stereo not drawn) [Thalidomide] (100 nM)
ASSAYED_SYSTEM: SK-BR-3
UNITS_LABEL: %
normalised response: 97.7
//
COMPOUND: Clc1ccc(Nc2nnc(Cc3ccncc3)c3ccccc23)cc1 [Vatalanib] (100 nM)
ASSAYED_SYSTEM: SK-BR-3
UNITS_LABEL: %
normalised response: 102
//
COMPOUND: C[C@@H](Oc1cc(-c2cnn(C3CCNCC3)c2)cnc1N)c1c(Cl)ccc(F)c1Cl [Crizotinib] (10 nM)
ASSAYED_SYSTEM: SK-BR-3
UNITS_LABEL: %
normalised response: 97.3

====

- Tested on: HCC1599
- ASSAY_PROTOCOL: drug sensitivity score (DSS), CellTox Green (DSS (AUC-based score)); higher = stronger drug effect (viability inhibition or cytotoxicity); extreme values may be limits of the assay
- CONDITION_DESCRIPTION: incubation time: 72 h

COMPOUND: CN[C@@H]1C[C@H]2O[C@@](C)([C@@H]1OC)n1c3ccccc3c3c4c(c5c6ccccc6n2c5c31)C(=O)N[C@H]4O [UCN-01]
drug sensitivity score: 0
//
COMPOUND: CCC1=C[C@@H]2CN(C1)Cc1c([nH]c3ccccc13)[C@@](C(=O)OC)(c1cc3c(cc1OC)N(C)[C@H]1[C@@](O)(C(=O)OC)[C@H](OC(C)=O)[C@]4(CC)C=CCN5CC[C@]31[C@@H]54)C2 [Vinorelbine]
drug sensitivity score: 2.9
//
COMPOUND: O=C(CCCCCCC(=O)Nc1ccc([C@H]2O[C@@H](CSc3nc(-c4ccccc4)c(-c4ccccc4)o3)C[C@@H](c3ccc(CO)cc3)O2)cc1)NO [Tubacin]
drug sensitivity score: 0
//
COMPOUND: CNCc1ccc(-c2[nH]c3cc(F)cc4c3c2CCNC4=O)cc1 [Rucaparib]
drug sensitivity score: 0

Values compiled from the supplement of paper PMC4862054.
